- Tested on: Methionine sulfoxide reductase A (Bos taurus)
- Test Protocol: bovine MsrA enzyme activators, primary screen, biochemical, absorbance, HTS (AID 602163);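 further: 0% = vehicle and 100% = reference activator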
- Recorded Conditions: purified bovine MsrA, absorbance read-out; at 10.6 µM
Screen size: about 360,000 compounds; about 1,100 (0.31%) were called active. No stated cut-off is given here; in the data, active means activation above about 7.5%; inactive means the rest. The sample holds actives, similar compounds and a random draw of the others, so the mix is not that of the screen.
Possible outcomes: active, inactive

>>> class_label("CCC(C)N1C(=O)S/C(=C/c2ccc(Sc3nc4ccccc4[nH]3)o2)C1=O (stereo not drawn)")
"inactive"
>>> class_label("COc1ccc(Cl)cc1NS(=O)(=O)c1cccc(C(=O)NCC2CCCO2)c1 (stereo not drawn)")
"active"
>>> class_label("COc1ccc([C@H]2N[C@]3(CCCN(CC4CCCCC4)C3=O)[C@H]3C(=O)N(C)C(=O)[C@@H]23)cc1")
"inactive"
>>> class_label("COc1ccc(Cl)cc1NS(=O)(=O)c1cccc(C(=O)NC2CCC(O)CC2)c1 (stereo not drawn)")
"inactive"
>>> class_label("O=C(CC1(O)C(=O)N(CN2CCOCC2)c2ccccc21)c1ccccc1 (stereo not drawn)")
"inactive"
>>> class_label("Fc1ccccc1COc1ccccc1CNCc1ccncc1")
"inactive"
>>> class_label("Cc1ccc(SCC(=O)c2cc(C)c(OC(=S)N(C)C)c(C)c2)cc1")
"inactive"
>>> class_label("COc1cccc(CNCCc2c[nH]c3ccccc23)c1OCc1ccccc1F")
"active"
>>> class_label("O=C(Nc1ccccc1F)c1ccccc1-c1ccccc1")
"inactive"
>>> class_label("S=c1[nH]nc(NCCc2ccccc2)s1")
"active"
>>> class_label("O=C(O)c1ccccc1-c1ccccc1C(=O)Nc1cccc2ccccc12")
"active"
>>> class_label("CN1C(=O)c2ccccc2C(C(=O)NCCCN2CCCC2)C1c1c[nH]c2ccccc12 (stereo not drawn)")
"inactive"
>>> class_label("O=C(COC(=O)Cc1ccc(Br)cc1)Nc1ccc(N2CCOCC2)cc1")
"inactive"
>>> class_label("COc1ccc(CN(C)C(=O)Cc2c[nH]c3ccccc23)c(OC)c1OC")
"inactive"
>>> class_label("C/C=C/C(=O)OCC(=O)Nc1ccc(F)cc1Cl")
"inactive"
>>> class_label("O=C(O)c1ccccc1-c1ccccc1C(=O)NCCc1ccccc1")
"inactive"
>>> class_label("O=C(O)CC(CC(=O)N1CCOCC1)c1ccccc1 (stereo not drawn)")
"inactive"
>>> class_label("CCN(CC(=O)Nc1ccccc1OC)C(=O)CC1CC2CCC1C2 (stereo not drawn)")
"active"
>>> class_label("CC1=NNC(=O)C1CCC(=O)N/N=C\\c1ccc(Cl)c(Cl)c1 (stereo not drawn)")
"inactive"
>>> class_label("CC(C)(C)C(=O)CCN1C(=O)C2(OCCO2)c2ccccc21")
"active"
>>> class_label("CC1=NNC(=O)C1CCC(=O)N/N=C\\c1cccc(Cl)c1 (stereo not drawn)")
"inactive"
>>> class_label("Cn1nnnc1SCC(=O)Nc1cccc(S(=O)(=O)N2CCCCC2)c1")
"inactive"
>>> class_label("CCN(CC(=O)Nc1ccccc1OC)C(=O)Cn1cnc2ccccc2c1=O")
"inactive"

---

- Tested on: Methionine sulfoxide reductase A (Bos taurus)
- Test Protocol: bovine MsrA enzyme activators, primary screen, biochemical, absorbance, HTS (AID 602163);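 further: 0% = vehicle and 100% = reference activator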
- Recorded Conditions: purified bovine MsrA, absorbance read-out; at 10.6 µM; hits give high values
About 1,100 (0.31%) of roughly 360,000 compounds were called active. Only a selection was taken, and actives are over-represented in it overall.
Below, each entry is listed with its recorded activation.
Reported Property: activation (%)

>>> measured_number("O=c1oc2ccc(C#CC3(O)CCCCC3)cc2cc1-n1cc(-c2ccsc2)nn1")
-0.09
>>> measured_number("Nc1ccc2[nH]c(=S)sc2c1")
0.61
>>> measured_number("CCOc1ccc2[nH]c(=O)c(CN(CCCO)C(C)=O)cc2c1")
-0.13
>>> measured_number("Cc1nccn1CCCNC(=O)CC1C(=O)NCCN1Cc1ccc(Cl)c(F)c1 (stereo not given)")
-5.91
>>> measured_number("O=C(Nc1c(Br)cc2c(c1Br)Cc1cc([N+](=O)[O-])ccc1-2)C(Cl)Cl")
-0.8
>>> measured_number("CCn1c(SCC(=O)Nc2cc(C)ccc2C)nnc1-c1cnccn1")
-14
>>> measured_number("Oc1cc(O)c2c(c1)OC(c1ccc(O)c(O)c1)C(O)C2 (stereo not given)")
-3.17
>>> measured_number("CCCNCc1cc(OCC)c(OCC(=O)Nc2ccccc2)cc1Br")
-1.95
>>> measured_number("Cc1cc(OCc2cc(C(=O)NCc3cc(C(C)C)no3)no2)cc(C)c1Cl")
-8.01
>>> measured_number("COc1ccc(C2=NN(C(=O)CSc3nc(=O)n4ccc(C)cc4n3)C(c3ccc(C)cc3)C2)cc1 (stereo not given)")
-4.23
>>> measured_number("CCOc1ccc2[nH]c(=S)sc2c1")
8.43
>>> measured_number("Nc1cc(OC(=O)c2ccccc2Br)nn1S(=O)(=O)c1ccccc1")
-3.8
>>> measured_number("COc1cc(C)nc(N2CCCC(C(=O)NCC(C)C)C2)n1 (stereo not given)")
-8.78
>>> measured_number("COc1ccccc1NC(=O)CCN1CCN(c2ccc(Cl)cc2)CC1")
-3.09
>>> measured_number("Brc1ccc(-c2n(-c3ccccn3)c3ccccc3[n+]2-c2ccccn2)cc1")
-3.31
>>> measured_number("COc1ccc(N2CCN(S(=O)(=O)c3cc4c5c(c3)C(C)C(=O)N5CCC4)CC2)cc1 (stereo not given)")
0.45
>>> measured_number("NC(=O)c1cc(-c2cccnc2)nc2ccc(Br)cc12")
-2.46
>>> measured_number("CC(C)CCNC(=O)C1CCC(CNc2c(N3CCC(C)CC3)c(=O)c2=O)CC1 (stereo not given)")
-7.85
>>> measured_number("CC(C)NC(=S)NN=C1CCCCCCCCCCC1")
-2.24
>>> measured_number("CCN(/N=C/c1ccc(N(C)C)cc1)c1nc2ccccc2[nH]1")
-3.63
>>> measured_number("CC(=O)c1ccc(-n2nnnc2SCC(=O)N2CCN(C(=O)c3ccco3)CC2)cc1")
-6.56
>>> measured_number("CN(/C(=N/S(=O)(=O)c1cccs1)c1ccccc1)c1ccc(O)cc1")
-3.66
>>> measured_number("Cc1ccc(S(=O)(=O)n2nc(OC(=O)C(C)(C)C)cc2N)cc1")
19.7
>>> measured_number("COc1ccc([C@H]2CC(=O)C=C(c3ccc(C)cc3)C2)cc1")
-3.05
>>> measured_number("O=C(CN1CCN(c2ccc(O)cc2)CC1)Nc1ccc(-c2ccccc2)cc1")
-3.19
>>> measured_number("CCOC(=O)c1cc(-c2ccccc2C)n(Cc2cc(C)no2)n1")
-2.88
>>> measured_number("Nc1[nH]c(=S)nc2nc(-c3ccccc3)c(-c3ccccc3)nc12")
4.05
>>> measured_number("CC(C)COC(=O)n1c(=O)oc2ccc(S(=O)(=O)N3CCCCC3)cc21")
-0.43
>>> measured_number("COC(=O)CN1C(=O)C(O)=C(C(C)=O)C1c1ccc([N+](=O)[O-])cc1 (stereo not given)")
8.27
>>> measured_number("CCOCCCNCc1ccc(OCc2ccc(F)cc2)c(OC)c1")
-0.52
>>> measured_number("Cc1cccc(-n2cnc(C(=O)NNC(=S)Nc3ccccc3)c2)n1")
-2.6
>>> measured_number("COc1ccc([C@H]2CC(=O)C=C(/C=C/c3ccccc3)C2)cc1")
8.06
>>> measured_number("Cc1ccc(C(=O)COC(=O)CCN2C(=O)C3C4CC(C(Br)C4Br)C3C2=O)cc1 (stereo not given)")
-3.01
>>> measured_number("O=S1(=O)C=C(SCCN2CCCC2)c2ccccc21")
3.43
>>> measured_number("Cn1c(=O)c2[nH]c(NCC3CCCO3)nc2n(-c2ccccc2)c1=O (stereo not given)")
-0.78
>>> measured_number("COc1cccc(CNn2cn[nH]c2=S)c1OCc1ccccc1")
-8.32
>>> measured_number("Cc1ccc2c(CC(=O)NCc3cccs3)coc2c1")
-2.6
>>> measured_number("CSc1ccc(CN(C)CC(=O)NCc2ccc(F)cc2)cc1")
-2.54
>>> measured_number("CCN(CC)CCCC(C)n1c2nc(=O)[nH]c(=O)c-2nc2cc(Cl)ccc21 (stereo not given)")
11.7
>>> measured_number("Nn1c(SCC(=O)Nc2ccc3c(c2)CCC3)nnc1C1CC1")
0.99
>>> measured_number("c1ccc(CNCc2ccc(CNCc3ccccc3)cc2)cc1")
-4.45
>>> measured_number("O=C(Nc1ccc2c(c1)OCCO2)C(c1ccc(F)cc1)N1CCCCC1 (stereo not given)")
-9.07
>>> measured_number("Cn1nnnc1SCC(=O)N1CCN(C(c2ccccc2)c2ccccc2)CC1")
-4.74
>>> measured_number("COc1ccc([C@H]2CC(=O)C=C(/C=C/c3ccc(Cl)cc3)C2)cc1")
-1.21
>>> measured_number("CCc1ccc(NC(=O)CSc2nnc(-c3cnccn3)n2Cc2ccco2)cc1")
10.3
